experiment: chemical genetic growth profiling, strain panel (AID 1159580);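 also: tested at 20 µM; growth read once vehicle control cultures reached saturation at 30 °C; 1 = growth at the plate median or of vehicle wells; lower values mean less growth of the strain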; details: S. cerevisiae deletion strains, growth OD, locus YLR027C, strain aat2, hits give low values
Hit rate of the full screen: of about 5,500 compounds, about 2,000 (36%) were called active. Roughly 18% stayed inconclusive and do not appear here. The list shows a part of the results.
observed property: normalized growth
No unit in the answer, only the number.

Use the examples below as a reference point.
compound=Cc1cc(=O)oc2cc(O)c(O)cc12 observed=0.976
compound=CC(=O)Oc1ccc(/C=C/c2cc(OC(C)=O)cc(OC(C)=O)c2)cc1 observed=0.979
compound="CC(C)(C)NCC(O)c1ccc(O)c(CO)c1 (centres undefined)" observed=1.01

Ask: Quick one: normalized growth for CC(CCC(=O)O)[C@H]1CCC2C3C(=O)C[C@@H]4CC(=O)CC[C@]4(C)C3CC(=O)[C@@]21C (some centres undefined) ?
Reply: 0.991
